assay_remarks: plasmodial surface anion channel blockers, osmotic lysis – cell-based, P. falciparum Indochina, OD700, 18 h, primary screen (AID 1157)
condition_summary: P. falciparum Indochina infected erythrocytes, osmotic lysis OD700, 18 h; higher = more signal, called active from +8 up or from −8 down
Assign YES whenever z-score does not fall below 0.04; assign NO whenever it does.

[
  {
    "compound": "COCCOC(=O)N1C(=O)[C@@]2(c3cc(C#CC4=CCCCC4)ccc31)[C@H](c1ccc(OCCO)cc1)N1[C@H](c3ccccc3)[C@H](c3ccccc3)OC(=O)[C@H]1[C@@H]2C(=O)Nc1nc2ccccc2s1",
    "qualitative_label": "YES"
  },
  {
    "compound": "COC(=O)c1c(CC[C@@H](CO)NC(=O)Nc2ncn[nH]2)oc(C(=O)Cc2ccccc2)c1C(=O)OC",
    "qualitative_label": "YES"
  },
  {
    "compound": "CC1CC/C=C\\[C@H]2OC34C=CCN(c5ccc6ccccc6c5)C(=O)[C@H]3N(CCCCCO)C(=O)[C@@H]4C2C(=O)O1 (some centres not stated)",
    "qualitative_label": "NO"
  },
  {
    "compound": "Cc1cccc(/C=C/C=O)c1",
    "qualitative_label": "NO"
  },
  {
    "compound": "CC(C)[Si]1(C(C)C)O[C@@H](c2ccccc2)c2cc(-c3ccc(-c4ccc(Cl)c(Cl)c4)o3)nc(CCc3ccccc3)c21",
    "qualitative_label": "NO"
  },
  {
    "compound": "CC1CC/C=C\\[C@H]2OC34C=CCN(Cn5nnc6ccccc65)C(=O)[C@H]3N(CCCO)C(=O)[C@@H]4C2C(=O)O1 (some centres not stated)",
    "qualitative_label": "YES"
  },
  {
    "compound": "COCCOC(=O)N1C(=O)[C@@]2(c3ccccc31)[C@H](c1ccc(O)cc1)N1[C@H](c3ccccc3)[C@H](c3ccccc3)OC(=O)[C@H]1[C@@H]2C(N)=O",
    "qualitative_label": "YES"
  }
]

All values here come from PubChem BioAssay.
